protocol: Pharmacokinetic evaluation in beagle dog
Assay type: in vivo
experimentalContext: plasma, po, p.o. 15 mg/kg
readoutKind: Cmax (ng/mL)
Provide the reading as a plain figure in ng/mL.

So what does the record say about Cmax for "CP(C)(=O)c1cc2c(Nc3ccc4scnc4c3)ccnc2cc1OC(F)(F)F" ?
13300

* * *

protocol: Metabolic stability test, RLM
Format: in vitro ADME
experimentalContext: rat, liver microsomes, pH 7.4, read-out: T1/2 (min) RLM
Everything with half-life at 1 μM lower than 80 min is 0.0; everything else, including exactly 80 min, is 1.0.

API: above_or_equal(metric=half-life at 1 μM, cutoff=80 min) for item CP(C)(=O)c1cc2c(Nc3ccc4scnc4c3)ccnc2cc1OC1COC1 [A16]
1.0

API: above_or_equal(metric=half-life at 1 μM, cutoff=80 min) for item COCCOc1cc2nccc(Nc3ccc4scnc4c3)c2cc1P(C)(C)=O [A8]
1.0

API: above_or_equal(metric=half-life at 1 μM, cutoff=80 min) for item CP(C)(=O)c1cc2c(Nc3ccc4scnc4c3)ccnc2cc1OCCO [A7]
1.0

API: above_or_equal(metric=half-life at 1 μM, cutoff=80 min) for item COc1cc2nccc(Nc3ccc4scnc4c3)c2cc1P(C)(C)=O [A6]
1.0

API: above_or_equal(metric=half-life at 1 μM, cutoff=80 min) for item CC1(COc2cc3nccc(Nc4ccc5scnc5c4)c3cc2P(C)(C)=O)COC1 [A9]
0.0

API: above_or_equal(metric=half-life at 1 μM, cutoff=80 min) for item CP(C)(=O)c1cc2c(Nc3ccc4scnc4c3)ccnc2cc1O[C@@H]1CCOC1 [A15]
0.0

API: above_or_equal(metric=half-life at 1 μM, cutoff=80 min) for item CP(C)(=O)c1cc2c(Nc3ccc4scnc4c3)ccnc2cc1O[C@H]1CCOC1 [A14]
0.0
